- Measurement description: Permeability of the compound across apical to basolateral side in human Caco-2 cells at pH 6.5 to 7.4
- Type: ADME, cell-based
- Assay conditions: Caco-2, pH 6.5, read-out: permeability
Readout: Papp A→B (nm/s)
Express your answer in nm/s, writing the number without its unit.

Name the reported Papp A→B value associated with the compound COc1ccc2[nH]c3c(c2c1)C[C@]1(OC)CC[C@H]2c4[nH]c5ccccc5c4CCN2[C@@H]1C3
59

###

- Measurement description: Selectivity index, ratio of CC50 for African green monkey Vero E6 cells to IC50 for antiviral activity against MERS-CoV NRCE-HKU270 infected in Vero E6 cells
- Assay type: toxicity, cell-based, Vero C1008
- Assay conditions: read-out: Ratio CC50/IC50
Readout: selectivity ratio

Name the reported selectivity ratio value associated with the compound COc1ccc2[nH]c3c(c2c1)C[C@]1(OC)CC[C@H]2c4[nH]c5ccccc5c4CCN2[C@@H]1C3
8.96
